Biological target: T1, TIGIT (ECD)-hFc (human, UniProt Q495A1 22-141)
T1 construct: bought protein; also called recombinant human TIGIT (ECD)-hFc; Cat #: 10917-H02H, Sino Biological; not shown: human Fc (hFc) of the bought protein
T1 sequence: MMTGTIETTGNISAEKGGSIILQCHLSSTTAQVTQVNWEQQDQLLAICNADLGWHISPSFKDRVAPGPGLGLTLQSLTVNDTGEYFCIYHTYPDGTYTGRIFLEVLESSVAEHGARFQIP
Assay: FACS blocking assay (protocol of Example 7): serially diluted antibody pre-incubated with TIGIT (ECD)-hFc, then binding of TIGIT (ECD)-hFc to A549/human PVR cells measured; blocked ligand: human PVR [A]
Listed next: entries and their corresponding IC50 (read off the curve).

Q) What value of IC50 (read off the curve) has been reported for the following binder? 70E11-VH1VL1 (antibody, human IgG1, kappa, V domains shown, humanized, human IgG1/kappa) VH: QVQLVQSGAEVKKPGASVKVSCKASGYTFTSYNVHWVRQAPGQGLEWMGTIYPGNLATSYNQKFKGRVTMTRDTSTSTVYMELSSLRSEDTAVYYCARSGTMDYWGQGTTVTVSS VL: EIVLTQSPGTLSLSPGERATLSCRASSSISSTYLHWYQQKPGQAPRLLIYNTQNLASGIPDRFSGSGSGTDFTLTISRLEPEDFAVYYCQQFGGYPLITFGAGTKLELKR
A) ~4 µg/mL

Q) Item Etigilimab (antibody, V domains shown) VH: QVQLQESGPGLVKPSETLSLTCAVSGYSITSDYAWNWIRQPPGKGLEWIGYISYSGSTSYNPSLRSRVTISRDTSKNQFFLKLSSVTAADTAVYYCARRQVGLGFAYWGQGTLVTVSS VL: DIQMTQSPSSLSASVGDRVTITCKASQDVSTAVAWYQQKPGKAPKLLIYSASYRYTGVPSRFSGSGSGTDFTFTISSLQPEDIATYYCQQHYSTPWTFGQGTKVEIK has what recorded IC50 (read off the curve)?
A) ~4 µg/mL

Continuing:
Q) Look at this binder and give its reported IC50 (read off the curve). 70E11-VH3VL3 (antibody, human IgG1, kappa, V domains shown, humanized, human IgG1/kappa) VH: QVQLVQSGAEVKKPGASVKVSCKASGYTFTSYNVHWVRQAPGQGLEWIGTIYPGNLATSYNQKFKGRVTLTADKSTSTVYMELSSLRSEDTAVYYCARSGTMDYWGQGTTVTVSS VL: EIVLTQSPGTLSLSPGERATLSCRASSSISSTYLHWYQQKPGASPKLLIYNTQNLASGIPDRFSGSGSGTSYTLTISRLEPEDFAVYYCQQFGGYPLITFGAGTKLELKR
A) ~4 µg/mL
